conditions: buffer; pH 7.4; 200.0 µM
Assay Endpoint: solubility kinetic (µg/mL)
Provide only the numeric value, understood in µg/mL.

Data point: O=C(Nc1ccncc1)c1cc2ccccc2cc1O ; solubility kinetic = 5.6

Data point: CCC1CN(C(=O)NCc2ccc(C)cc2)c2ccccc2O1 (stereo not drawn) ; solubility kinetic = 20.8

Data point: C=CCNC(=S)N1CCN(c2ncc(C(F)(F)F)cc2Cl)CC1 ; solubility kinetic = 35.7

Data point: O=C(NCC1CCCO1)c1cc2cc(F)ccc2[nH]1 (stereo not drawn) ; solubility kinetic = 36.8

Data point: CCOC(=O)C1=C(c2ccccc2)NC(=O)NC1c1ccsc1 (stereo not drawn) ; solubility kinetic = 43.9

Data point: CCOC(=O)c1cnc(-c2ccccc2)nc1N1CC(C)OC(C)C1 (stereo not drawn) ; solubility kinetic = 32.1

Data point: CCNc1nc(NCC)nc(NS(=O)(=O)c2ccc(N)cc2)n1 ; solubility kinetic = 36.9

Data point: Cc1cc(C)c(NC(=O)COC(=O)C2CCC2)c(Cl)c1 ; solubility kinetic = 42.2

***
Data point: CC(=O)c1c(-c2ccccc2)c2cc(Cl)ccc2n(C)c1=O ; solubility kinetic = 38.8

Data point: Cc1ccc(CCC(=O)Nc2cc(Cl)ccc2Cl)o1 ; solubility kinetic = 1.9

Data point: O=C(COC(=O)[C@@H]1CCCN1C(=O)c1cccs1)Nc1cccc([N+](=O)[O-])c1 ; solubility kinetic = 2.8

Data point: COc1ccc(OC)c(/C=C/c2[nH]c(=O)[nH]c(=O)c2[N+](=O)[O-])c1 ; solubility kinetic = 35.1

Data point: O=C(NCc1cccnc1)Nc1ccc(Br)cc1Cl ; solubility kinetic = 19.2

Data point: O=C(Nc1cccc(S(=O)(=O)N2CCCCC2)c1)c1cncc(Br)c1 ; solubility kinetic = 31.6

Data point: Cc1nc(Nc2ccccc2)sc1C(=O)c1ccc(F)cc1 ; solubility kinetic = 2.4

Data point: CC(CN1CCC(O)CC1)c1ccccc1 (stereo not drawn) ; solubility kinetic = 26.6

Data point: O=C(O)c1ccccc1C(=O)N(c1ccccc1)c1ccccc1 ; solubility kinetic = 46.8

Data point: CC(=O)Nc1ccc(Oc2nc(-c3ccccn3)nc3ccccc23)cc1 ; solubility kinetic = 6.8

Data point: Cc1cccc(C(=O)OCC(=O)c2ccc3c(c2)NC(=O)CO3)c1 ; solubility kinetic = 4.5

---

Items are presented alongside their recorded solubility kinetic.
conditions: buffer; pH 7.4; 200.0 µM

Consider the reported solubility kinetic for these compounds:
Data point: CN(Cc1ccccc1)S(=O)(=O)c1cn(C)cn1 ; solubility kinetic = > 39.8 µg/mL

Data point: Cc1ccc(-c2cnco2)cc1 ; solubility kinetic = < 0.3 µg/mL

Data point: COc1cccc(NC(=S)N2CCN(C)CC2)c1 ; solubility kinetic = > 39.8 µg/mL

Data point: CCC1CO/C(=C(\C(=C(Cl)Cl)N2CCOCC2)[N+](=O)[O-])N1 (stereo not given) ; solubility kinetic = > 50.7 µg/mL

Data point: COc1ccc(CCNC(=O)Cc2cccs2)cc1OC ; solubility kinetic = > 45.8 µg/mL

***
Data point: CN(Cc1ccccc1)C(=O)c1ccc2c(c1)S(=O)(=O)N=C1CCCCCN12 ; solubility kinetic = > 59.6 µg/mL

Data point: COCCN1C2=C(COC(C)(C)C2)C(=S)NC1c1ccccc1 (stereo not given) ; solubility kinetic = > 49.9 µg/mL

Data point: COCC(C)Nc1nc(C)c(C(C)=O)s1 (stereo not given) ; solubility kinetic = > 34.2 µg/mL

Data point: CC(NC(=O)c1cccc(Cl)c1)C1CC2CCC1C2 (stereo not given) ; solubility kinetic = < 0.6 µg/mL

Data point: C/C(=C\c1ccc2c(c1)OCO2)C(=O)c1c(C)cc(C)[nH]c1=O ; solubility kinetic = > 46.7 µg/mL
